Biological target: T1, human IL-2Rγ expressed on cells (NK-92, Jurkat) (human) (UniProt P31785)
T1 sequence (looked up): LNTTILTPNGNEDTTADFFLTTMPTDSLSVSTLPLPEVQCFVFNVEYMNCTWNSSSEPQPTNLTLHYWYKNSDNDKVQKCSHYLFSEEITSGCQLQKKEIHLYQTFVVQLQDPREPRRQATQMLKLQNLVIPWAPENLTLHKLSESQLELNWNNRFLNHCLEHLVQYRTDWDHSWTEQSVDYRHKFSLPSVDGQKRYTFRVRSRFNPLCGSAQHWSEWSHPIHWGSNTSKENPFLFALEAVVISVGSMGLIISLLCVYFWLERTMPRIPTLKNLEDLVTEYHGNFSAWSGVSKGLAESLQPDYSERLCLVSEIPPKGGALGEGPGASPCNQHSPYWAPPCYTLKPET
Assay: flow cytometry on NK-92 cells (endogenous human IL-2Rg), antibody 10 ug/ml
# Raw MFI values compiled below
Answer in MFI, number only, no unit symbol.

Any idea what Raw MFI was measured for H4H12863P (antibody, human IgG4 S228P, kappa, V domains shown) VH: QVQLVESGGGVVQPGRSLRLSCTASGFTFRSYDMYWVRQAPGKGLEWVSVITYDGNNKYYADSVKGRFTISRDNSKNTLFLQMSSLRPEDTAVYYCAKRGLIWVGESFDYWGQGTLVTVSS VL: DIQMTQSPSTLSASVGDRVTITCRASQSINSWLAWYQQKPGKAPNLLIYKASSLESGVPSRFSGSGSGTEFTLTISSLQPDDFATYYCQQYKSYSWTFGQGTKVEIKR ?
13000

Any idea what Raw MFI was measured for H4H12857P (antibody, human IgG4 S228P, kappa, V domains shown) VH: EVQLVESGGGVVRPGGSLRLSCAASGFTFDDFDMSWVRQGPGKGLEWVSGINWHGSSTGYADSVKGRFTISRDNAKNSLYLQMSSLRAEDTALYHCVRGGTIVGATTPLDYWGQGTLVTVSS VL: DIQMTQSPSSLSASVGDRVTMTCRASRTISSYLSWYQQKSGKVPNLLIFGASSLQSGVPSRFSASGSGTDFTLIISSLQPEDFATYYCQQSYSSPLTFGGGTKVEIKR ?
5490
